- Target or test system: human recombinant ALR1 (Homo sapiens, UniProt P14550)
- Sequence (P14550 1-325): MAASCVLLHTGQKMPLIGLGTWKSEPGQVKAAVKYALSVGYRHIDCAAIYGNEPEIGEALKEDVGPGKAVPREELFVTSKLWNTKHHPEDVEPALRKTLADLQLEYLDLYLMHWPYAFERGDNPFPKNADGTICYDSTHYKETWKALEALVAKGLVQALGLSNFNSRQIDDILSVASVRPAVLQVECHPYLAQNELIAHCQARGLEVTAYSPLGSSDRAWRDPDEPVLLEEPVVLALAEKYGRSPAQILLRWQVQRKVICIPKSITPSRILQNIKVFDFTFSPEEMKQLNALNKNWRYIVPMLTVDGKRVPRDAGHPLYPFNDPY
- Run description: ALR1 enzyme inhibition assay (NADPH oxidation, sodium D-gluconate substrate)
- Type: biochemical
- Assay setup: tested in concentration of 100 μM, n = 3; read-out: ALR1 Inh. %
Outcome measure: inhibition at 100 µM (%)

Below: 3 compounds and their reported inhibition at 100 µM.
INSERT INTO results (entry_smiles, value_units, observed_measurement) VALUES
  ('O=C(O)Cn1cc(O)c(=O)cc1C=Cc1ccc(F)c(F)c1', '%', 35.8),
  ('O=C(O)Cn1cc(O)c(=O)cc1C=Cc1ccc(O)cc1', '%', 75.8),
  ('CC(C)(C)c1ccc(C=Cc2cc(=O)c(O)cn2CC(=O)O)cc1', '%', 49.4);

P: O=C(O)Cn1cc(O)c(=O)cc1C=Cc1ccccc1
Q: O=C(O)Cn1cc(O)c(=O)cc1C=Cc1ccc(O)c(O)c1
Query block: For the pair P and Q , which entry has the numerically smaller recorded inhibition at 100 µM? Let me know the label of the one you choose.
Result block: P
(P: 38.8%, Q: 80%)
